Each item that follows carries a reported IC50.
Tested on: 4EBP1 (Thr37/46) phosphorylation (mTORC1) in MDA-MB-468 cells
testDetails: Cell based AlphaLISA assay, mTOR kinase cellular assay: inhibition of p-4E-BP1 (T37/46) in MDA-MB-468 cells
condition: Homo sapiens, read-out: pIC50 for Inhibition of mTORC1 and mTORC2 Substarte Phosphorylation p-4E-BP1-(T37/46) (converted)

| testSmiles | IC50 |
| --- | --- |
| CO[C@H]1C[C@@H]2CC[C@@H](C)[C@@](O)(O2)C(=O)C(=O)N2CCCC[C@H]2C(=O)O[C@H]([C@H](C)C[C@@H]2CC[C@@H](OC(=O)NCCOCCOCCOCCOCCOCCC(=O)NCCOCCOCCOCCOCCOCCC(=O)N3CCc4cc(Cn5nc(-c6cnc7[nH]ccc7c6)c6c(N)ncnc65)ccc4C3)[C@H](OC)C2)CC(=O)[C@H](C)/C=C(\C)[C@@H](O)[C@@H](OC)C(=O)[C@H](C)C[C@H](C)/C=C/C=C/C=C/1C | ≤ 3.16 nM |
| CO[C@H]1C[C@@H]2CC[C@@H](C)[C@@](O)(O2)C(=O)C(=O)N2CCCC[C@H]2C(=O)O[C@H]([C@H](C)C[C@@H]2CC[C@@H](OC(=O)NCc3cnc(N4CCN(c5ncc(C(=O)NCCOCCOCCOCCOCCC(=O)N6CCc7cc(Cn8nc(-c9cnc%10[nH]ccc%10c9)c9c(N)ncnc98)ccc7C6)c(N)n5)CC4)nc3)[C@H](OC)C2)CC(=O)[C@H](C)/C=C(\C)[C@@H](O)[C@@H](OC)C(=O)[C@H](C)C[C@H](C)/C=C/C=C/C=C/1C | > 1000 nM |
| CO[C@H]1C[C@@H]2CC[C@@H](C)[C@@](O)(O2)C(=O)C(=O)N2CCCC[C@H]2C(=O)O[C@H]([C@H](C)C[C@@H]2CC[C@@H](OC(=O)NCCOCCOCCOCCOCCC(=O)NCc3cnc(N4CCN(c5ncc(C(=O)N6CCc7cc(Cn8nc(-c9ccc%10oc(N)nc%10c9)c9c(N)ncnc98)ccc7C6)cn5)CC4)nc3)[C@H](OC)C2)CC(=O)[C@H](C)/C=C(\C)[C@@H](O)[C@@H](OC)C(=O)[C@H](C)C[C@H](C)/C=C/C=C/C=C/1C | ≤ 3.16 nM |

----------
IC50: recorded values
Test system: NCI-H358 (K-Ras G12C)
testDetails: CellTiter-Glo cell viability assay, 5-day treatment
Type: cell-based
condition: Homo sapiens, NCI-H358, 120 h, 5-day treatment; read-out: H358 Cell Viability assay data (K-Ras G12C, IC50)
quantityMeasured: IC50

| molecule | result |
| --- | --- |
| CCn1c(-c2cccnc2[C@H](C)OC)c2c3cc(ccc31)-c1cc(O)cc(c1)C[C@H](NC(=O)C(C1CC1)C1CC1)C(=O)N1CCC[C@H](N1)C(=O)OCC(C)(C)C2 | 100 to 1000 nM |
| CCn1c(-c2cccnc2[C@H](C)OC)c2c3cc(ccc31)-c1csc(n1)C[C@H](NC(=O)[C@H](C(C)C)N(C)C(=O)N1CC([C@@H](C)N(C)C)C1)C(=O)N1CCC[C@H](N1)C(=O)OCC(C)(C)C2 (atropisomer, axis not shown) | 10 to 100 nM |
| CCn1c(-c2cccnc2COC)c2c3cc(ccc31)-c1cc(O)cc(c1)C[C@H](NC(=O)[C@H](C(C)C)N(C)C(=O)[C@H](N)CCCNC(=N)N)C(=O)N1CCC[C@H](N1)C(=O)OCC(C)(C)C2 | > 10000 nM |
| CCn1c(-c2cccnc2[C@H](C)OC)c2c3cc(ccc31)-c1csc(n1)C[C@H](NC(=O)[C@H](C(C)C)N(C)C(=O)N1CCCC13CCN(C)CC3)C(=O)N1CCC[C@H](N1)C(=O)OCC(C)(C)C2 | 10 to 100 nM |

meta.source: patent US20230233569A1
